PROTOCOL_SUMMARY: Pharmacokinetic study in ICR mice
Assay type: in vivo
EXPERIMENTAL_CONTEXT: male, mouse, supernatant of centrifuged blood, IV 1 mg/kg
VALUE_TYPE: AUC (ng·h/mL)

{"COMPOUND": "C[C@@H](COCCC(=O)N1CCN(c2ncc(C(F)(F)F)cn2)CC1)Nc1cn[nH]c(=O)c1C(F)(F)F [RBN-2397, reference compound]", "VALUE_TYPE": "AUC", "VALUE_MEASURED": 256}
{"COMPOUND": "C[C@@H](CN1CC(C(=O)N2CCN(c3ncc(C(F)(F)F)cn3)CC2)C1)Nc1cn[nH]c(=O)c1C(F)(F)F", "VALUE_TYPE": "AUC", "VALUE_MEASURED": 591}

====

PROTOCOL_SUMMARY: Pharmacokinetic study in SD rats
Format: in vivo
EXPERIMENTAL_CONTEXT: male, rat, supernatant of centrifuged blood, PO 10 mg/kg
Source text: […]
VALUE_TYPE: half-life

{"COMPOUND": "C[C@@H](CN1CC(C(=O)N2CCN(c3ncc(C(F)(F)F)cn3)CC2)C1)Nc1cn[nH]c(=O)c1C(F)(F)F [I-A-1]", "VALUE_TYPE": "half-life", "VALUE_MEASURED": "2.57 h"}
{"COMPOUND": "C[C@@H](COCCC(=O)N1CCN(c2ncc(C(F)(F)F)cn2)CC1)Nc1cn[nH]c(=O)c1C(F)(F)F [RBN-2397, reference compound]", "VALUE_TYPE": "half-life", "VALUE_MEASURED": "0.75 h"}

====

The entries below come with measured AUC values attached.
PROTOCOL_SUMMARY: Pharmacokinetic study in SD rats
Assay type: in vivo
EXPERIMENTAL_CONTEXT: male, rat, supernatant of centrifuged blood, IV 1 mg/kg
Text: […]
VALUE_TYPE: AUC (ng·h/mL)

{"COMPOUND": "C[C@@H](COCCC(=O)N1CCN(c2ncc(C(F)(F)F)cn2)CC1)Nc1cn[nH]c(=O)c1C(F)(F)F [RBN-2397, reference compound]", "VALUE_MEASURED": 333}
{"COMPOUND": "C[C@@H](CN1CC(C(=O)N2CCN(c3ncc(C(F)(F)F)cn3)CC2)C1)Nc1cn[nH]c(=O)c1C(F)(F)F", "VALUE_MEASURED": 548}

====

SYSTEM_NAME: PARP7 (Homo sapiens, UniProt Q7Z3E1)
Construct: purchased BPS Bioscience
Sequence (Q7Z3E1 whole entry): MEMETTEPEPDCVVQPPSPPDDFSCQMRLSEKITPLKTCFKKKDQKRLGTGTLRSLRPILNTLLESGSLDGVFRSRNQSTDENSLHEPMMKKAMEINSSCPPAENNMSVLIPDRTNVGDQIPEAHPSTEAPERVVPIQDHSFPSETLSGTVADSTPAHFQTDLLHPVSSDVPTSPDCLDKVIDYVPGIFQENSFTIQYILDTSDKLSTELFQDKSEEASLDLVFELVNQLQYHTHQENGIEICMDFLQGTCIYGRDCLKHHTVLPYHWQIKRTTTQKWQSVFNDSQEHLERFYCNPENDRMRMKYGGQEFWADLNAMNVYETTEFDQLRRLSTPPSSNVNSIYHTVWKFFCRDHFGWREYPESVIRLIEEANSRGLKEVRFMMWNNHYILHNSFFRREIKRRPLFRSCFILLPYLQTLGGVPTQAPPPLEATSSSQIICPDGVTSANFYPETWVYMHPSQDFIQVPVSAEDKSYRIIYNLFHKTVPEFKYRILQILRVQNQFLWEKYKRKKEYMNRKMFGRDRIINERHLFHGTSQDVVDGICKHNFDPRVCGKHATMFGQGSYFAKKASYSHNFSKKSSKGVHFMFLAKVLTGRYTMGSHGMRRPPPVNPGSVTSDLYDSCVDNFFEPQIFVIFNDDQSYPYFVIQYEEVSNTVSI
PROTOCOL_SUMMARY: Inhibitory activity of compounds on PARP7 enzyme (PARP7 Chemiluminescent Assay Kit)
Assay type: biochemical
EXPERIMENTAL_CONTEXT: chemiluminescence, symbols defined as IC50 classes, read-out: 100 nM Inhibition Rate
Protocol: Experimental materials: PARP7 Chemiluminescent Assay Kit, BPS Bioscience; DMSO, China National Pharmaceutical Group, Nivo, PerkinElmer. (1) Preparation of Solutions and Buffers: […] l. ELISA ECL Substrate A and ELISA ECL Substrate B in the kit was mixed to obtain a mixed solution according to a ratio of 1:1, 50 μL of the mixed solution was added to each well of the test well plate, Nivo was used to perform Luminescence detection immediately, and a luminous value (RLU) was read; and […]
VALUE_TYPE: IC50

{"MOLECULE": "C[C@@H](CN1CC(C(=O)N2CCN(c3ncc(-c4ccc(C(F)(F)F)cc4)cn3)CC2)C1)Nc1cn[nH]c(=O)c1C(F)(F)F [I-A-2]", "SYSTEM_NAME": "PARP7 (Homo sapiens, UniProt Q7Z3E1)", "VALUE_MEASURED": "0.1 to 0.5 µM"}
{"MOLECULE": "C[C@@H](Cn1ccc(C(=O)N2CCN(c3ncc(C(F)(F)F)cn3)CC2)c1)Nc1cn[nH]c(=O)c1C(F)(F)F [I-C-1]", "SYSTEM_NAME": "PARP7 (Homo sapiens, UniProt Q7Z3E1)", "VALUE_MEASURED": "< 0.1 µM"}
{"MOLECULE": "C[C@@H](CN1CC(C(=O)N2CCN(c3ccc(C(F)(F)F)cn3)CC2)C1)Nc1cn[nH]c(=O)c1C(F)(F)F [I-A-10]", "SYSTEM_NAME": "PARP7 (Homo sapiens, UniProt Q7Z3E1)", "VALUE_MEASURED": "< 0.1 µM"}
{"MOLECULE": "Cc1cnc(N2CCN(C(=O)C3CN(C[C@H](C)Nc4cn[nH]c(=O)c4C(F)(F)F)C3)CC2)nc1 [I-A-6]", "SYSTEM_NAME": "PARP7 (Homo sapiens, UniProt Q7Z3E1)", "VALUE_MEASURED": "< 0.1 µM"}
{"MOLECULE": "C[C@@H](CN1CCC(C(=O)N2CCN(c3ncc(C(F)(F)F)cn3)CC2)CC1)Nc1cn[nH]c(=O)c1C(F)(F)F [I-A-19]", "SYSTEM_NAME": "PARP7 (Homo sapiens, UniProt Q7Z3E1)", "VALUE_MEASURED": "0.1 to 0.5 µM"}
{"MOLECULE": "O=C(NCCCCNc1cn[nH]c(=O)c1C(F)(F)F)N1CCN(c2ncc(C(F)(F)F)cn2)CC1 [I-E-1]", "SYSTEM_NAME": "PARP7 (Homo sapiens, UniProt Q7Z3E1)", "VALUE_MEASURED": "< 0.1 µM"}
{"MOLECULE": "C[C@@H](CN1CC(C(=O)N2CCN(c3ccc(C(F)(F)F)cc3)CC2)C1)Nc1cn[nH]c(=O)c1C(F)(F)F [I-A-11]", "SYSTEM_NAME": "PARP7 (Homo sapiens, UniProt Q7Z3E1)", "VALUE_MEASURED": "0.1 to 0.5 µM"}
{"MOLECULE": "C[C@@H](CCN1CC(C(=O)N2CCN(c3ncc(C(F)(F)F)cn3)CC2)C1)Nc1cn[nH]c(=O)c1C(F)(F)F [I-A-21]", "SYSTEM_NAME": "PARP7 (Homo sapiens, UniProt Q7Z3E1)", "VALUE_MEASURED": "0.1 to 0.5 µM"}
{"MOLECULE": "CC(CC1CN(C(=O)C2CCN(c3ncc(C(F)(F)F)cn3)CC2)C1)Nc1cn[nH]c(=O)c1C(F)(F)F [I-D-1]", "SYSTEM_NAME": "PARP7 (Homo sapiens, UniProt Q7Z3E1)", "VALUE_MEASURED": "< 0.1 µM"}
{"MOLECULE": "C[C@@H](CN1CC(C(=O)NC2CN(c3ncc(C(F)(F)F)cn3)C2)C1)Nc1cn[nH]c(=O)c1C(F)(F)F [I-A-15]", "SYSTEM_NAME": "PARP7 (Homo sapiens, UniProt Q7Z3E1)", "VALUE_MEASURED": "< 0.1 µM"}
{"MOLECULE": "O=C(Nc1cccc(CNc2cn[nH]c(=O)c2C(F)(F)F)c1)N1CCN(c2ncc(C(F)(F)F)cn2)CC1 [I-E-7]", "SYSTEM_NAME": "PARP7 (Homo sapiens, UniProt Q7Z3E1)", "VALUE_MEASURED": "< 0.1 µM"}
{"MOLECULE": "C[C@@H](CN1CC(C(=O)N2CCN(c3ncc(C(F)(F)F)cn3)CC2)C1)Nc1cn[nH]c(=O)c1C(F)(F)F [I-A-1]", "SYSTEM_NAME": "PARP7 (Homo sapiens, UniProt Q7Z3E1)", "VALUE_MEASURED": "< 0.1 µM"}
{"MOLECULE": "O=C(NC/C=C/CNc1cn[nH]c(=O)c1C(F)(F)F)N1CCN(c2ncc(C(F)(F)F)cn2)CC1 [I-E-2]", "SYSTEM_NAME": "PARP7 (Homo sapiens, UniProt Q7Z3E1)", "VALUE_MEASURED": "< 0.1 µM"}
{"MOLECULE": "C[C@@H](CN1CC(C(=O)N2CCN(c3ncc(Br)cn3)CC2)C1)Nc1cn[nH]c(=O)c1C(F)(F)F [I-A-7]", "SYSTEM_NAME": "PARP7 (Homo sapiens, UniProt Q7Z3E1)", "VALUE_MEASURED": "< 0.1 µM"}
{"MOLECULE": "C[C@@H](CN1CC(C(=O)N2CCN(c3ncc(S(C)(=O)=O)cn3)CC2)C1)Nc1cn[nH]c(=O)c1C(F)(F)F [I-A-4]", "SYSTEM_NAME": "PARP7 (Homo sapiens, UniProt Q7Z3E1)", "VALUE_MEASURED": "< 0.1 µM"}
{"MOLECULE": "C[C@@H](CN1CC(C(=O)N2CCN(c3ncccn3)CC2)C1)Nc1cn[nH]c(=O)c1C(F)(F)F [I-A-14]", "SYSTEM_NAME": "PARP7 (Homo sapiens, UniProt Q7Z3E1)", "VALUE_MEASURED": "0.1 to 0.5 µM"}
{"MOLECULE": "C[C@@H](CN1CC(C(=O)N2CCN(c3ncc(C(F)(F)F)cn3)CC2)C1)Nc1cn[nH]c(=O)c1Br [I-A-23]", "SYSTEM_NAME": "PARP7 (Homo sapiens, UniProt Q7Z3E1)", "VALUE_MEASURED": "0.1 to 0.5 µM"}
{"MOLECULE": "O=C(C1CN(CCNc2cn[nH]c(=O)c2C(F)(F)F)C1)N1CCN(c2ncc(C(F)(F)F)cn2)CC1 [I-A-20]", "SYSTEM_NAME": "PARP7 (Homo sapiens, UniProt Q7Z3E1)", "VALUE_MEASURED": "< 0.1 µM"}
{"MOLECULE": "C[C@@H](CN1CC(C(=O)N2CCN(c3ncc(F)cn3)CC2)C1)Nc1cn[nH]c(=O)c1C(F)(F)F [I-A-8]", "SYSTEM_NAME": "PARP7 (Homo sapiens, UniProt Q7Z3E1)", "VALUE_MEASURED": "0.1 to 0.5 µM"}
{"MOLECULE": "C[C@@H](CN1CC(C(=O)N2CCN(c3nccc(C(F)(F)F)n3)CC2)C1)Nc1cn[nH]c(=O)c1C(F)(F)F [I-A-13]", "SYSTEM_NAME": "PARP7 (Homo sapiens, UniProt Q7Z3E1)", "VALUE_MEASURED": "< 0.1 µM"}
{"MOLECULE": "C[C@@H](CN1CC(C(=O)N2CCN(c3ncc(Cl)cn3)CC2)C1)Nc1cn[nH]c(=O)c1C(F)(F)F [I-A-5]", "SYSTEM_NAME": "PARP7 (Homo sapiens, UniProt Q7Z3E1)", "VALUE_MEASURED": "< 0.1 µM"}
{"MOLECULE": "C[C@@H](CN1CC[C@H](C(=O)N2CCN(c3ncc(C(F)(F)F)cn3)CC2)C1)Nc1cn[nH]c(=O)c1C(F)(F)F [I-A-18]", "SYSTEM_NAME": "PARP7 (Homo sapiens, UniProt Q7Z3E1)", "VALUE_MEASURED": "0.1 to 0.5 µM"}
